IC50 by entry:
test system: Jurkat acute T cell leukemia cell line; test: Growth inhibition assay (CellTiter-Glo); settings: read-out: ADC potency, IC50, Jurkat, 5-days treatment, 3000 cells per well
Your answer is read as nM, so omit the unit and give the number.

Molecule	IC50 [nM]
Ab12-CZ (conjugate) VH: EVQLVESGGGLVQPGRSLKLSCAASGFTFSDYAMAWVRQAPKKGLEWVASIIYDGRGTYYRDSVKGRFTISRDNAKSTLYLQMDSLRSEDTATYYCARQGDGTYYYWGSFDYWGQGVMVTVSS VL: DIVMTQSPSSLAVSAGETVTINCKSSQSLLSSGNQKNYLAWYQQKPGQSPKLLIYWASTRQSGVPDRFIGSGSGTDFTLTISSVQAEDLAIYHCQQYYDTPYTFGAGTKLELK	0.094

[ask] What IC50 value was documented for this molecule, Ab15-CZ (conjugate) VH: EVQLVESGGGLVQPGRSLKLSCAASGFTFSDYTMAWVRQAPKKGLEWVATIIYDGRGTYYRDSVKGRFTISRDNAKSTLYLQMDSLRSEDTATYYCARQSDGTYYYWGYFDYWGQGVMVTVSS VL: DIVMTQSPSSLAVSAGETVTINCKSSQSLLFSGNQKNYLAWYQQKPGQSPKLLIYWASTRQSGVPDRFIGSGSGTDFTLTIRSVQAEDLAIYYCQQYYDSPYTFGAGTKLELK ?
[reply] 0.076

[ask] What IC50 value was documented for this molecule, Ab10-CZ (conjugate) VH: EVQLVESGGGLVQPGRSLKLSCAASGFTFSDYAMAWVRQAPKKSLEWVATIIYDGRGTYCRDSVKGRFTISRDNAKSTLYLQMDSLRSEDTATYYCARQGDGTYHYWGYFDYWGQGVMVTVSS VL: DIVMTQSPSSLAVSAGETVTINCKSSQSLLSSGNQKNYLAWYQQKPGQSPKLLIYWASTRQSGVPDRFIGSGSGTDFTLTISSVQAEDLAIYYCQQYYDTPYTFGAGTKVDLK ?
[reply] 0.148
